- Tested on: Hep-2 (laryngeal carcinoma)
- assay-procedure: MTT growth inhibition of human solid tumor cells, 72 h
- Assay type: cell-based
- condition: Homo sapiens, HEp-2, 72 h; read-out: IC90
Decide using IC90 alone. Strictly below 4 µg/mL: label 1. Equal to or above 4 µg/mL: label 0.

Answered examples (2):
{"compound": "CCN(C)Cc1oc2c(c1C)C(=O)C(=O)c1c-2ccc2c(C)cccc12", "category-label": "label 0"}
{"compound": "CCC(=O)OCc1oc2c(c1C)C(=O)C(=O)c1c-2ccc2c(C)cccc12", "category-label": "label 0"}

Q) Does Cc1c(CN(C)CCOC(=O)CNC(=O)OC(C)(C)C)oc2c1C(=O)C(=O)c1c-2ccc2c(C)cccc12 have IC90 strictly under 4 µg/mL?
A) label 1

Q) Does Cc1c(CN2CCCN(C)CC2)oc2c1C(=O)C(=O)c1c-2ccc2c(C)cccc12 have IC90 strictly under 4 µg/mL?
A) label 0

---

- System: A549 (human lung cancer)
- assay-procedure: MTT growth inhibition of human solid tumor cells, 72 h
- Type: cell-based
- condition: Homo sapiens, A549, 72 h; read-out: IC50
- Protocol: […] Obtaining 4000 well-growing human solid tumor cells and inoculating them into wells of a 96-well cell culture plate. […] Then the viable cell concentration is determined by the MTT method.
observation-type: IC50 (µg/mL)
Enter your answer as a number in µg/mL; do not include the unit.

Worked examples follow.
{"chemical-string": "Cc1c(CN(C)CCOC(=O)[C@@H](N)C(C)C)oc2c1C(=O)C(=O)c1c-2ccc2c(C)cccc12", "target-desc": "A549 (human lung cancer)", "observation-type": "IC50", "units-text": "µg/mL", "reported-measurement": 0.8}
{"chemical-string": "Cc1c(CNCC2CCCCC2)oc2c1C(=O)C(=O)c1c-2ccc2c(C)cccc12", "target-desc": "A549 (human lung cancer)", "observation-type": "IC50", "units-text": "µg/mL", "reported-measurement": 1.59}
{"chemical-string": "C#CCNCc1oc2c(c1C)C(=O)C(=O)c1c-2ccc2c(C)cccc12", "target-desc": "A549 (human lung cancer)", "observation-type": "IC50", "units-text": "µg/mL", "reported-measurement": 1.8}
{"chemical-string": "COC(=O)/C=C/C(=O)OCCN(C)Cc1oc2c(c1C)C(=O)C(=O)c1c-2ccc2c(C)cccc12", "target-desc": "A549 (human lung cancer)", "observation-type": "IC50", "units-text": "µg/mL", "reported-measurement": 1.79}
{"chemical-string": "Cc1c(CNCCC(C)(C)C)oc2c1C(=O)C(=O)c1c-2ccc2c(C)cccc12", "target-desc": "A549 (human lung cancer)", "observation-type": "IC50", "units-text": "µg/mL", "reported-measurement": 1.75}

The compound listed as Cc1c(CN(C)CCOC(=O)CNC(=O)OC(C)(C)C)oc2c1C(=O)C(=O)c1c-2ccc2c(C)cccc12 shows IC50 equal to 1.07

The compound listed as CCC(=O)OCc1oc2c(c1C)C(=O)C(=O)c1c-2ccc2c(C)cccc12 shows IC50 equal to 10.6

The compound listed as CCCCNCc1oc2c(c1C)C(=O)C(=O)c1c-2ccc2c(C)cccc12 shows IC50 equal to 1.28

---

- Test system: A549 (human lung cancer)
- assay-procedure: MTT growth inhibition of human solid tumor cells, 72 h
- Assay type: cell-based
- condition: Homo sapiens, A549, 72 h; read-out: IC50
Class field: derived from IC50; ranges lower bin: < 2 µg/mL; middle bin: ≥ 2 µg/mL and < 4 µg/mL; upper bin: ≥ 4 µg/mL

{"molecule": "Cc1c(C[N+](C)(CCO)Cc2ccc(F)c(Cl)c2)oc2c1C(=O)C(=O)c1c-2ccc2c(C)cccc12 (stereo not shown) [BS-TA-60]", "category-label": "middle bin"}
{"molecule": "CC[N+](C)(Cc1ccc(F)c(Cl)c1)Cc1oc2c(c1C)C(=O)C(=O)c1c-2ccc2c(C)cccc12 (stereo not shown) [BS-TA-50]", "category-label": "upper bin"}
{"molecule": "Cc1c(CNCCO)oc2c1C(=O)C(=O)c1c-2ccc2c(C)cccc12 [BS-TA-65]", "category-label": "lower bin"}

Q) For Cc1c(CN2CCCN(C)CC2)oc2c1C(=O)C(=O)c1c-2ccc2c(C)cccc12 [BS-TA-B12] , which IC50 bin applies?
A) lower bin

Q) For Cc1c(CNCC2CC2)oc2c1C(=O)C(=O)c1c-2ccc2c(C)cccc12 [BS-TA-B07] , which IC50 bin applies?
A) upper bin

Q) For CCN(C)Cc1oc2c(c1C)C(=O)C(=O)c1c-2ccc2c(C)cccc12 [BS-TA-B03] , which IC50 bin applies?
A) lower bin

Q) For Cc1c(COC(=O)c2ccnc(Cl)c2)oc2c1C(=O)C(=O)c1c-2ccc2c(C)cccc12 [BS-TA-A01] , which IC50 bin applies?
A) upper bin

Q) For Cc1c(CN(C)CCOC(=O)C(C)(C)C)oc2c1C(=O)C(=O)c1c-2ccc2c(C)cccc12 [BS-TA-62] , which IC50 bin applies?
A) middle bin

Q) For Cc1c(CN(C)CCO)oc2c1C(=O)C(=O)c1c-2ccc2c(C)cccc12 [BS-TA-B17] , which IC50 bin applies?
A) lower bin

Q) For Cc1c(CN(C)Cc2ccccc2)oc2c1C(=O)C(=O)c1c-2ccc2c(C)cccc12 [BS-TA-B01] , which IC50 bin applies?
A) lower bin

---

- Test system: A549 (human lung cancer)
- assay-procedure: MTT growth inhibition of human solid tumor cells, 72 h
- Assay type: cell-based
- condition: Homo sapiens, A549, 72 h; read-out: IC50
observation-type: IC50
Units required after the number.

Worked examples follow.
{"chemical-string": "CC(=O)OCCN(C)Cc1oc2c(c1C)C(=O)C(=O)c1c-2ccc2c(C)cccc12", "target-desc": "A549 (human lung cancer)", "observation-type": "IC50", "reported-measurement": "2.76 µg/mL"}
{"chemical-string": "Cc1c(CN(C)CCOC(=O)C2CCNCC2)oc2c1C(=O)C(=O)c1c-2ccc2c(C)cccc12", "target-desc": "A549 (human lung cancer)", "observation-type": "IC50", "reported-measurement": "1.4 µg/mL"}

The compound listed as Cc1c(CN(C)CCOC(=O)CCC(=O)O)oc2c1C(=O)C(=O)c1c-2ccc2c(C)cccc12 shows IC50 equal to 1.72 µg/mL

The compound listed as Cc1c(CN(C)CCOC(=O)OC(C)C)oc2c1C(=O)C(=O)c1c-2ccc2c(C)cccc12 shows IC50 equal to 6.5 µg/mL

---

- Test system: NB4 (acute promyelocytic leukemia, AML)
- assay-procedure: MTT growth inhibition of leukemia cells, 72 h
- Type: cell-based, human
- condition: Homo sapiens; NB4, 72 h; read-out: IC50
observation-type: IC50

{"chemical-string": "COC(=O)/C=C/C(=O)OCCN(C)Cc1oc2c(c1C)C(=O)C(=O)c1c-2ccc2c(C)cccc12", "target-desc": "NB4 (acute promyelocytic leukemia, AML)", "reported-measurement": "0.19 µg/mL"}
{"chemical-string": "Cc1c(CN(C)CCOC(=O)C(C)(C)C)oc2c1C(=O)C(=O)c1c-2ccc2c(C)cccc12", "target-desc": "NB4 (acute promyelocytic leukemia, AML)", "reported-measurement": "1.42 µg/mL"}
{"chemical-string": "C#CCNCc1oc2c(c1C)C(=O)C(=O)c1c-2ccc2c(C)cccc12", "target-desc": "NB4 (acute promyelocytic leukemia, AML)", "reported-measurement": "1.53 µg/mL"}

The molecule listed as Cc1c(CNCCO)oc2c1C(=O)C(=O)c1c-2ccc2c(C)cccc12 shows IC50 equal to 0.04 µg/mL

---

- Test system: PC-3 (prostate cancer)
- assay-procedure: MTT growth inhibition of human solid tumor cells, 72 h
- Type: cell-based
- condition: Homo sapiens; PC-3, 72 h; read-out: IC90
observation-type: IC90 (µg/mL)
Enter your answer as a number in µg/mL; do not include the unit.

Worked examples follow.
{"molecule": "Cc1c(CNCC2CCCCC2)oc2c1C(=O)C(=O)c1c-2ccc2c(C)cccc12", "target-desc": "PC-3 (prostate cancer)", "IC90, µg/mL": 24.5}
{"molecule": "Cc1c(CN(C)CCOC(=O)C(C)(C)C)oc2c1C(=O)C(=O)c1c-2ccc2c(C)cccc12", "target-desc": "PC-3 (prostate cancer)", "IC90, µg/mL": 8.76}
{"molecule": "Cc1c(CN(C)CCO)oc2c1C(=O)C(=O)c1c-2ccc2c(C)cccc12", "target-desc": "PC-3 (prostate cancer)", "IC90, µg/mL": 2}
{"molecule": "Cc1c(CN(C)CCOC(=O)OC(C)C)oc2c1C(=O)C(=O)c1c-2ccc2c(C)cccc12", "target-desc": "PC-3 (prostate cancer)", "IC90, µg/mL": 18.9}

Now for a further molecule.
The molecule listed as Cc1c(C[N+](C)(CCO)Cc2ccc(F)c(Cl)c2)oc2c1C(=O)C(=O)c1c-2ccc2c(C)cccc12 (centres unmarked) shows IC90 equal to 10.8
